# tgt: KRas G12D mutant (Homo sapiens (Human), UniProt P01116, G12D)
# Sequence (P01116 other isoform, or with tags, fused parts or gaps G12D): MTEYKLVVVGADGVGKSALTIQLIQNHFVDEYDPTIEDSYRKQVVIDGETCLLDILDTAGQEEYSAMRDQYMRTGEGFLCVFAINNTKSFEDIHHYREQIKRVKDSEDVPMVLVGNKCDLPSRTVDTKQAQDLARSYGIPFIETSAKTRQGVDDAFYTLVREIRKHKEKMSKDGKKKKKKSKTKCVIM
# testDescription: Ras GTP Binding Domain Inhibition Assay, KRas G12D mutant
# conditionDetails: 20 μM; + SOS; Table 7; read-out: KRas G12D mutant + SOS: % inh.
valueKind: inhibition at 20 µM

Past entries and their recorded results:
INSERT INTO assay_data (molecule, valuekind, reportedvalue) VALUES
  ('Cc1c(-c2ccn(C(C)C)n2)sc2nc(-c3nccn3C)nc(NCCN3CCOCC3)c12', 'inhibition at 20 µM', '76 to 100%'),
  ('COCCO[C@H]1CC[C@@H](Nc2nc(-c3nccn3C)nc3sc(-c4ccn(C(C)C)n4)c(C)c23)C1 (racemic)', 'inhibition at 20 µM', '76 to 100%'),
  ('Cc1c(-c2ccn(C(C)C)n2)sc2nc(-c3nccn3C)nc(NCCN3CCS(=O)(=O)CC3)c12', 'inhibition at 20 µM', '76 to 100%'),
  ('COc1cc(-c2sc3nc(-c4nccn4C)nc(N[C@@H]4CC[C@@H](OC)C4)c3c2-c2ccccc2)ccn1 (racemic)', 'inhibition at 20 µM', '76 to 100%');

Please examine the following record next.
Input: Supply measured inhibition at 20 µM of COc1cccc(-c2sc3nc(-c4nccn4C)nc(N[C@H]4C[C@H](OC)C4)c3c2-c2ccccc2)c1F in your reply.
Output: 76 to 100%
